# Test target: ATP-dependent translocase ABCB1 (Homo sapiens, UniProt P08183)
# Sequence (P08183 whole entry): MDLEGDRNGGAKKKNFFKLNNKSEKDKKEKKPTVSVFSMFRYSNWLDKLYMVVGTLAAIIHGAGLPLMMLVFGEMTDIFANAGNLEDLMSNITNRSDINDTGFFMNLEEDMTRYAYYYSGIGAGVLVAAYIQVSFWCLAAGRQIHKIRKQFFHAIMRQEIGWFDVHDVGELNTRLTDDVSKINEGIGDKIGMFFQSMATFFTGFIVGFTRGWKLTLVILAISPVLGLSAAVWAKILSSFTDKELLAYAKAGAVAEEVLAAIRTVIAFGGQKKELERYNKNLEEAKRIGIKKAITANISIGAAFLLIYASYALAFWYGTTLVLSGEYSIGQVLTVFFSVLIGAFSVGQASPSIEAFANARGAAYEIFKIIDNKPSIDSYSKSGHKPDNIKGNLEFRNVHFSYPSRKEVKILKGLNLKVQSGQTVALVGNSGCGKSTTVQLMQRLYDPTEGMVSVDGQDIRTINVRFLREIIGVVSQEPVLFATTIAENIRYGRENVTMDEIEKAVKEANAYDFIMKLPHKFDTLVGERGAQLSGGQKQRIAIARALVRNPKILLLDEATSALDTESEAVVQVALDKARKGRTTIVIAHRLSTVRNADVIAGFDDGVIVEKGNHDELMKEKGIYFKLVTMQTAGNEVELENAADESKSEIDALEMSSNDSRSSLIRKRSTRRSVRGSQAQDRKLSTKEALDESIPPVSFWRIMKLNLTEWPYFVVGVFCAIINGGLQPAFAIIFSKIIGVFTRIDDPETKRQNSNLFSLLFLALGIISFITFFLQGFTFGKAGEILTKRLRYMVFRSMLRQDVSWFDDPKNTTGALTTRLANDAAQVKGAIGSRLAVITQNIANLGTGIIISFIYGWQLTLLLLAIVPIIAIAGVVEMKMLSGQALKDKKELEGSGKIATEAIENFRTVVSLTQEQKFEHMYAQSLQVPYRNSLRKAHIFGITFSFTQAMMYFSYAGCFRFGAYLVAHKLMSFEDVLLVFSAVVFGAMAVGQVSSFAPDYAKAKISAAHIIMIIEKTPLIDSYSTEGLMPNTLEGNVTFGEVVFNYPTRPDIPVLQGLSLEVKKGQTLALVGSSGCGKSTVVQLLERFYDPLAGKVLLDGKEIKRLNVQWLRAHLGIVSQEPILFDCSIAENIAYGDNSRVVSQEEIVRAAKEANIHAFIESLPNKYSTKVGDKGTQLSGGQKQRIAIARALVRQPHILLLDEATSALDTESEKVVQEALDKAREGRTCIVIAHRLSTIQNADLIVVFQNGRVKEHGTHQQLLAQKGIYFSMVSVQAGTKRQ
# Test name: Inhibition of P-glycoprotein expressed in MDR CCRF vcr1000 cells by daunorubicin efflux assay
Property: log10 EC50 (log10 of the value in nM)

| Compound | Property | Numeric readout |
| --- | --- | --- |
| O=C(CCc1ccccc1)c1ccccc1OCC(O)CNc1ccc(C(F)(F)F)cc1 (configuration not stated) | log10 EC50 | 3.93 |
| OC(COc1ccccc1C(O)CCc1ccccc1)CN1CCN(c2ccc(F)cc2)CC1 (configuration not stated) | log10 EC50 | 2.83 |
| O=C(CCc1ccccc1)c1cc(OCc2ccccc2)ccc1OCC(O)CN1CCCCC1 (configuration not stated) | log10 EC50 | 2.24 |
| O=C(C1Oc2ccccc2C1CCc1ccccc1)N1CCCCC1 (configuration not stated) | log10 EC50 | 3.82 |
| O=C(CCc1ccccc1)c1ccccc1OCC(O)CN1CCOCC1 (configuration not stated) | log10 EC50 | 3.56 |
| O=C(CCc1cccc2ccccc12)c1ccccc1OCC(O)CNCCC(c1ccccc1)c1ccccc1 (configuration not stated) | log10 EC50 | 2.86 |
| CC(=O)c1ccc(OCC(O)CN2CCCCC2)cc1 (configuration not stated) | log10 EC50 | 4.69 |
| CC(C)(C)C(NCC(O)COc1ccccc1C(=O)CCc1ccccc1)c1ccccc1 (configuration not stated) | log10 EC50 | 2.47 |
| O=C(CCc1ccccc1)c1ccccc1OCC(O)CNCCC(c1ccccc1)c1ccccc1 (configuration not stated) | log10 EC50 | 2.86 |
| CC(=O)c1ccccc1OCC(O)CN1CCN(c2ccc(F)cc2)CC1 (configuration not stated) | log10 EC50 | 3.32 |
| CC(=O)c1cc(C)ccc1OCC(O)CN1CCCCC1 (configuration not stated) | log10 EC50 | 3.74 |
| O=C(CCc1ccccc1)c1ccccc1OCC(O)CN(C(c1ccccc1)c1ccccc1)C(c1ccccc1)c1ccccc1 (configuration not stated) | log10 EC50 | 4.02 |
| O=C(CCc1ccccc1)c1ccccc1OCC(O)CNc1ccc([N+](=O)[O-])cc1 (configuration not stated) | log10 EC50 | 3.41 |
| Cc1ccc(OCC(O)CN2CCN(c3ccccc3C)CC2)c(C(=O)CCc2ccccc2)c1 (configuration not stated) | log10 EC50 | 1.41 |
| CN(C)CC(O)COc1ccccc1C(=O)CCc1ccccc1 (configuration not stated) | log10 EC50 | 3.39 |
| O=C(CCc1ccccc1)c1ccccc1OCCCCN1CCOCC1 | log10 EC50 | 3.00 |
| CC1Cc2cccc(OCC(O)CN3CCCCC3)c2C1=O (configuration not stated) | log10 EC50 | 3.99 |
| Cc1ccc(CCC(=O)c2ccccc2OCC(O)CN2CCN(c3ccccc3C)CC2)cc1 (configuration not stated) | log10 EC50 | 1.26 |
| COc1ccc(OCC(O)CN2CCN(c3ccccc3C)CC2)c(C(C)=O)c1 (configuration not stated) | log10 EC50 | 2.93 |
| CCOc1ccccc1NC(=O)C1=C(C)NC(=S)NC1c1cccs1 (configuration not stated) | log10 EC50 | 3.94 |
| CCOC(=O)C(=NNc1c(Cl)cc(Cl)cc1Cl)C(=O)OCC | log10 EC50 | 4.25 |

###

# Test target: ATP-dependent translocase ABCB1 (Homo sapiens)
# Test name: Inhibition of P-glycoprotein expressed in MDR CCRF vcr1000 cells by daunorubicin efflux assay
Entries and their measured EC50 follow.

| Compound | Test target | EC50 (nM) |
| --- | --- | --- |
| O=C(CCc1ccccc1)c1cccc(OCC(O)CN2CCCCC2)c1 (stereo unspecified) | ATP-dependent translocase ABCB1 (Homo sapiens) | 424 |
| CCOCCOC(=O)c1ccc(N)cc1 | ATP-dependent translocase ABCB1 (Homo sapiens) | 312000 |
| COC(CCc1ccccc1)c1ccccc1OCC(O)CN1CCN(c2ccc(F)cc2)CC1 (stereo unspecified) | ATP-dependent translocase ABCB1 (Homo sapiens) | 226 |
| CCC(=O)c1ccccc1OCC(O)CN1CCC(O)(c2ccccc2)CC1 (stereo unspecified) | ATP-dependent translocase ABCB1 (Homo sapiens) | 299 |
| CC(C)N(CC(O)COc1ccccc1C(=O)CCc1cccc2ccccc12)C(C)C (stereo unspecified) | ATP-dependent translocase ABCB1 (Homo sapiens) | 465 |
| OC(COc1ccccc1C(O)CCc1ccccc1)CN1CCOCC1 (stereo unspecified) | ATP-dependent translocase ABCB1 (Homo sapiens) | 9540 |

###

# Test target: ATP-dependent translocase ABCB1 (Homo sapiens)
# Test name: Inhibition of P-glycoprotein expressed in MDR CCRF vcr1000 cells by daunorubicin efflux assay
// classify: if (EC50 < 300 nM) 1 (yes) else 0 (no)

| Compound | Cat |
| --- | --- |
| CCCCOc1ccc(C(=O)Nc2ccc3nc(SCc4c(C)cc(C)c(C(C)=O)c4C)sc3c2)cc1 | 1 (yes) |
| CCc1ccc(N2C(=O)c3ccccc3NC2c2ccc(OCC(C)C)cc2)cc1 (centres undefined) | 0 (no) |
| COc1ccccc1N1CCN(CC(O)c2oc3ccccc3c2CCc2ccccc2)CC1 (centres undefined) | 1 (yes) |
| O=C(CCc1ccccc1)c1ccccc1OCCCCCCN1CCCCC1 | 1 (yes) |
| O=C(CCc1ccccc1)c1ccccc1OCCCCCCCN1CCCCC1 | 1 (yes) |
| Cc1ccccc1N1CCN(CC(O)COc2ccccc2C(=O)CCc2ccccc2)CC1 (centres undefined) | 1 (yes) |
| CCCN(CC(O)COc1ccccc1C(=O)CCc1ccccc1)C(=O)c1ccccc1 (centres undefined) | 0 (no) |
| Clc1ccccc1-c1nc(N2CCCC2)c2ccccc2n1 | 0 (no) |
| COC(CCc1ccccc1)c1ccccc1OCC(O)CNCCC(c1ccccc1)c1ccccc1 (centres undefined) | 0 (no) |
| CC(=O)c1ccc(OCC(O)CN2CCN(c3ccccc3C)CC2)cc1 (centres undefined) | 0 (no) |
| O=C(CCc1ccccc1)c1ccccc1OCCN1CCCCC1 | 0 (no) |
| CCC(C)c1ccc(N2C(=O)c3ccccc3NC2c2ccc(OC)cc2)cc1 (centres undefined) | 0 (no) |
| Cc1cccc(N2CCN(CC(O)COc3cccc(C(=O)CCc4ccccc4)c3)CC2)c1C (centres undefined) | 1 (yes) |
| CCc1ccc(N2C(=O)c3ccccc3NC2c2ccc(OCc3ccccc3)cc2)cc1 (centres undefined) | 0 (no) |
| CCCN(C)CC(O)COc1ccccc1C(=O)CCc1ccccc1 (centres undefined) | 0 (no) |
| O=C1c2c(cccc2OCC(O)CN2CCCCC2)CC1Cc1ccccc1 (centres undefined) | 1 (yes) |
| c1ccc(CCc2c(CCN3CCCCC3)oc3ccccc23)cc1 | 0 (no) |
| CC(=O)c1cccc(OCC(=O)CN2CCN(c3cccc(C)c3C)CC2)c1 | 0 (no) |
| CCC(C)c1ccc(C2Nc3ccccc3C(=O)N2c2ccc(Cl)cc2)cc1 (centres undefined) | 0 (no) |
| CC1c2ccccc2OC1CN1CCCCC1 (centres undefined) | 0 (no) |
| O=C(CCc1ccccc1)c1ccc(OCC(O)CN2CCOCC2)cc1 (centres undefined) | 0 (no) |
| CCCNCC(O)COc1ccc(O)cc1C(=O)CCc1ccccc1 (centres undefined) [5-HYDROXY PROPAFENONE] | 0 (no) |
| Cc1cccc(N2CCN(CC(O)COc3ccc(C(=O)CCc4ccccc4)cc3)CC2)c1C (centres undefined) | 1 (yes) |
| CC(C)(C)c1ccc(C(=O)Nc2ccc3nc(SCc4cccc5ccccc45)sc3c2)cc1 | 0 (no) |
| O=C(CCc1cccc2ccccc12)c1ccccc1OCC(O)CN1CCCCC1 (centres undefined) | 1 (yes) |
| COc1ccc(C(=O)CCc2ccc(N(C)C)cc2)c(OCC(O)CN2CCN(c3ccccc3C)CC2)c1 (centres undefined) | 1 (yes) |
| CC(=O)c1cccc(OCC(O)CN2CCOCC2)c1 (centres undefined) | 0 (no) |
| Cc1ccccc1N1CCN(CC(O)COc2ccccc2C(=O)CCc2ccc(N(C)C)cc2)CC1 (centres undefined) | 1 (yes) |

###

Readings of EC50 for the listed compounds
# Test target: ATP-dependent translocase ABCB1 (Homo sapiens)
# Test name: Inhibition of P-glycoprotein expressed in MDR CCRF vcr1000 cells by daunorubicin efflux assay

| Compound | Result units | EC50 |
| --- | --- | --- |
| CCC(C)c1ccc(N2C(=O)c3ccccc3NC2c2ccc(C(C)C)cc2)cc1 (stereo not given) | nM | 290 |
| CC(=O)c1ccc(OCC(O)CN2CCN(c3ccc(F)cc3)CC2)cc1 (stereo not given) | nM | 11900 |
| Cc1ccccc1N1CCN(CC(O)COc2ccc(Cl)cc2C(=O)CCc2ccccc2)CC1 (stereo not given) | nM | 59 |
| O=C(CCc1ccccc1)c1ccccc1OCC(O)CN1CCCCC1 (stereo not given) | nM | 599 |
| Cc1ccc(N2CCN(CC(O)COc3cccc4c3C(=O)C(Cc3ccccc3)C4)CC2)c(C)c1 (stereo not given) | nM | 167 |
| CC(=O)OC(COc1ccccc1C(=O)CCc1ccccc1)CN1CCCCC1 (stereo not given) | nM | 336 |
| COC(CCc1ccccc1)c1ccccc1OCC(O)CN(C(C)C)C(C)C (stereo not given) | nM | 658 |
| CC(=O)c1cccc(OCC(O)CN2CCN(c3ccc(F)cc3)CC2)c1 (stereo not given) | nM | 10100 |
| CC(=O)c1cccc(OCC(O)CN2CCCCC2)c1 (stereo not given) | nM | 9070 |
| COc1ccc(CCC(=O)c2ccccc2OCC(O)CN2CCN(c3ccccc3C)CC2)cc1 (stereo not given) | nM | 14 |

Recorded values, source ChEMBL document CHEMBL1142990.
